Recorded values, source the supplement of paper PMC10724198.

Would you kindly list protein stability index for each of these sequences?
- Test system: Saccharomyces cerevisiae
- Assay Remarks: protein stability index of tFT-peptide fusion (C-terminal peptide) (PSI (0-1 scale)); higher = more stable (slower turnover)
- Condition: genetic background: wild type; temperature: 30 C
Give bare numbers.

Please review the entries below; each comes with its answer.
| Seq | protein stability index |
| --- | --- |
| GSGCLFNRWRIL | 0.196 |
| CWDNTLKTMRQM | 0.333 |
| FLFFLFVVFVFV | 0.286 |
| CVYGILLLVDVR | 0.0971 |
| VASYVCIGVVWV | 0.299 |

Dear reader, for each entry below, please note its protein stability index.
1. SFCVLLQFCVLV
2. WPPPPPSLLLLC
3. GGGGGGGGGGVG
4. PPPPTPRPLLPP
5. CFSVFSVLCFFV

Reply:
1: 0.338; 2: 0.149; 3: 0.387; 4: 0.667; 5: 0.414

* * *

- Test system: Saccharomyces cerevisiae
- Assay Remarks: protein stability index of tFT-peptide fusion (C-terminal peptide) (PSI (0-1 scale)); higher = more stable (slower turnover)
- Condition: genetic background: doa10 deletion; temperature: 30 C
Quantity Kind: protein stability index
Give bare numbers.

Please review the entries below; each comes with its answer.
| Seq | Tgt | Quantity Kind | Readout Value |
| --- | --- | --- | --- |
| FWYIRIRLAVVA | Saccharomyces cerevisiae | protein stability index | 0.0283 |
| TVYMVIRVIVWG | Saccharomyces cerevisiae | protein stability index | 0.0909 |
| LFLFVGCSVRRL | Saccharomyces cerevisiae | protein stability index | 0.374 |
| LGNVTDVMHRLS | Saccharomyces cerevisiae | protein stability index | 0.328 |
| VIAFFSVLKRYV | Saccharomyces cerevisiae | protein stability index | 0.199 |
| GMMLLRFIIRWY | Saccharomyces cerevisiae | protein stability index | 0.138 |
| VYGSLPVVVCRI | Saccharomyces cerevisiae | protein stability index | 0.4 |
| LHFHIYLIISPF | Saccharomyces cerevisiae | protein stability index | 0.238 |

Dear reader, for each entry below, please note its protein stability index.
1. VCTFLLVSFFLS
2. WRAFVFYHHFLD
3. GTSDLIALLMLT
4. RIKVTRRIIIYA
5. TLDWKFGRGGIG

Reply:
1: 0.186; 2: 0.329; 3: 0.361; 4: 0.14; 5: 0.33

Dear reader, for each entry below, please note its protein stability index.
1. IKSIKQNKIKTI
2. RSPIRYPPVVLS
3. ACCGVFFFFFWL
4. RFYLFLFFVRST
5. ISVSFSVIFFLL

Reply:
[0.186, 0.539, 0.363, 0.113, 0.0751]

Dear reader, for each entry below, please note its protein stability index.
1. PLLPLPRFPLFA
2. KALFPGLLLCAF
3. KLRELQVRQQLS
4. ASPLRLFIPFLF

Reply:
0.332
0.204
0.189
0.192

Dear reader, for each entry below, please note its protein stability index.
1. FVGVVCILWLVG
2. VFVRDFLVSIVV
3. FLPLFFLPCLSV
4. SAWGQAFWCQMG
5. PYHAPRPPFSLF
6. SRGLVPMANRYC

Reply:
1. 0.153
2. 0.139
3. 0.315
4. 0.233
5. 0.0708
6. 0.142

Dear reader, for each entry below, please note its protein stability index.
1. FCFYLLFLGFTR
2. CLISILLFLCFT
3. QARQLEMYMVVF
4. SIFFLVPLVFLS
5. GWFCLFFVVSTG
6. YPRLVGGCWFRL

Reply:
[0.37, 0.376, 0.379, 0.134, 0.203, 0.644]

Dear reader, for each entry below, please note its protein stability index.
1. SRPGRWRLYYVS
2. GAQQRVKERYIE
3. VCLFRLVVFFPV
4. SWMSQFSILLTA
5. HILRLVYFIVYE

Reply:
0.38
0.616
0.196
0.153
0.264

Dear reader, for each entry below, please note its protein stability index.
1. SFHTFFCPFFIL
2. RPNTFRTRAKAL

Reply:
0.189
0.145

* * *

Would you kindly list protein stability index for each of these sequences?
- System: Saccharomyces cerevisiae
- Assay Remarks: protein stability index of tFT-peptide fusion (C-terminal peptide) (PSI (0-1 scale)); higher = more stable (slower turnover)
- Condition: genetic background: wild type; temperature: 30 C
Numbers only.

Please review the entries below; each comes with its answer.
| Seq | protein stability index |
| --- | --- |
| ELRERLLRPSKK [YPL245W C-terminal 12 aa] | 0.771 |
| VAQNPVLAAVIA [KAP123 C-terminal 12 aa] | 0.466 |
| VDDIVSGVRKQE [CCT3 C-terminal 12 aa] | 0.677 |
| DPERQNNSNFYN [SMC6 C-terminal 12 aa] | 0.686 |
| KTPNTKRRKTHK [HAS1 C-terminal 12 aa] | 0.75 |

Dear reader, for each entry below, please note its protein stability index.
1. KVCVCMTINSYN [YDR154C C-terminal 12 aa]
2. EKDELDNIEVSK [QCR7 C-terminal 12 aa]
3. LKQKALVAAKQS [YJR015W C-terminal 12 aa]
4. RDNPILLEDEDP [ULP2 C-terminal 12 aa]

Reply:
0.583
0.683
0.319
0.675

* * *

- Tested on: Saccharomyces cerevisiae
- Assay Remarks: protein stability index of tFT-peptide fusion (C-terminal peptide) (PSI (0-1 scale)); higher = more stable (slower turnover)
- Condition: genetic background: das1 deletion; temperature: 30 C
Would you kindly list protein stability index for each of these sequences?
Give bare numbers.

Please review the entries below; each comes with its answer.
| Seq | protein stability index |
| --- | --- |
| NIRIVNGLQNTR [TIM8 C-terminal 12 aa] | 0.712 |
| TPQEILQRFQKQ [EAF1 C-terminal 12 aa] | 0.681 |
| HKTNLTRGSFYS [YIR020W-A C-terminal 12 aa] | 0.705 |
| KKEKISKYVSKS [OPI11 C-terminal 12 aa] | 0.725 |
| PCALYFKDHTAY [HUA2 C-terminal 12 aa] | 0.699 |

Dear reader, for each entry below, please note its protein stability index.
1. MQRVSTQHEKET [PMA1 C-terminal 12 aa]
2. VLDVGSVLDVTI [PSR2 C-terminal 12 aa]
3. ILLTPNNHGEMK [BDH1 C-terminal 12 aa]
4. PFEDKFEIHDER [OPY2 C-terminal 12 aa]
5. VPLKEELFPSSS [COX6 C-terminal 12 aa]
6. LLLAGRKLSLDK [ARK1 C-terminal 12 aa]
7. TTLCILFLFFTW [GOS1 C-terminal 12 aa]

Reply:
1. 0.715
2. 0.718
3. 0.689
4. 0.743
5. 0.718
6. 0.694
7. 0.386

* * *

- System: Saccharomyces cerevisiae
- Assay Remarks: protein stability index of tFT-peptide fusion (C-terminal peptide) (PSI (0-1 scale)); higher = more stable (slower turnover)
- Condition: genetic background: wild type; temperature: 30 C
Quantity Kind: protein stability index
Answers are plain numbers.

Please review the entries below; each comes with its answer.
| Seq | Tgt | protein stability index |
| --- | --- | --- |
| GGTGGWVVNRGV | Saccharomyces cerevisiae | 0.706 |
| MAVDSVIISAVF | Saccharomyces cerevisiae | 0.592 |
| ILIYFWFSFFFF | Saccharomyces cerevisiae | 0.753 |
| RAVFLCVWDYSG | Saccharomyces cerevisiae | 0.597 |
| SMGLYRDVVSGH | Saccharomyces cerevisiae | 0.665 |

Dear reader, for each entry below, please note its protein stability index.
1. RGGSVDCRGNPL
2. LLLTVMSSPSLL
3. FPQHPLFDPPAF
4. TEVWERGKNVGE

Reply:
0.656
0.645
0.793
0.635

Dear reader, for each entry below, please note its protein stability index.
1. QVILQHSLGLLD
2. ISGIKNKKKKGT
3. KKKKPKNKSKDK
4. TVTPPAPCPPAG

Reply:
0.707
0.684
0.634
0.709

Dear reader, for each entry below, please note its protein stability index.
1. GTHGVGGNIDLT
2. FTYGPVQGAARG
3. PPPYAPLPPTWP
4. RPPPRPPHPPPL
5. GGKTRGVRMCGG
6. WFVCSGVYGSVM
7. PTREGSDGMVGN
8. VACLRLTVYVMG

Reply:
[0.648, 0.717, 0.726, 0.679, 0.648, 0.692, 0.702, 0.193]

* * *

- Test system: Saccharomyces cerevisiae
- Assay Remarks: protein stability index of tFT-peptide fusion (C-terminal peptide) (PSI (0-1 scale)); higher = more stable (slower turnover)
- Condition: genetic background: wild type; temperature: 30 C
Quantity Kind: protein stability index
Answers are plain numbers.

| Seq | Tgt | protein stability index |
| --- | --- | --- |
| SLCMEAGLVNEN [YCF1 C-terminal 12 aa] | Saccharomyces cerevisiae | 0.663 |

Dear reader, for each entry below, please note its protein stability index.
1. SHPTEQTEVSSQ [MHR1 C-terminal 12 aa]
2. TPKPVDTDDEED [NEW1 C-terminal 12 aa]
3. LSADGIYTAVPN [PAU17 C-terminal 12 aa]

Reply:
1. 0.68
2. 0.707
3. 0.702
